Origin of measurements: paper PMC2994877

# study-target: turkey β3C-adrenoceptor (tβ3C) (Meleagris gallopavo, UniProt A0A803YLI8)
# Sequence (A0A803YLI8 entry or part of it): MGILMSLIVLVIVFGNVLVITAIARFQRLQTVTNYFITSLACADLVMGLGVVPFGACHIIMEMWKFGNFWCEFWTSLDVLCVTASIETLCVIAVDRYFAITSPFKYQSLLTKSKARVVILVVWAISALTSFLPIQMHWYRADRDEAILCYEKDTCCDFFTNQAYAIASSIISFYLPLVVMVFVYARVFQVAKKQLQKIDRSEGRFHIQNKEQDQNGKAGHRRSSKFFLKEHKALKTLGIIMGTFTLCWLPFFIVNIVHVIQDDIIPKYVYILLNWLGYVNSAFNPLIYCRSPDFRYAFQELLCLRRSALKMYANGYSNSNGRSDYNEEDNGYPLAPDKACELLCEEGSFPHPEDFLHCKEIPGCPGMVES
# measurement-description: CRE-SPAP production, CHO tβ3C cells
# Format: cell-based
# particulars: Log KD CGP20712A, vs agonist isoprenaline, CRE-SPAP, CHO tβ3C cells
result-type: Kd
In your response, the unit should come after the numeric value.

Kd for Cn1cc(C(F)(F)F)nc1-c1ccc(OCC(O)CNCCOc2ccc(O)c(C(N)=O)c2)cc1 (stereo not shown) [CGP20712A] ?
3.72 µM

---

# study-target: turkey β3C-adrenoceptor (tβ3C) (Meleagris gallopavo)
# measurement-description: CRE-SPAP production, CHO tβ3C cells
# Type: cell-based
# particulars: Log KD CGP20712A, vs agonist fenoterol, CRE-SPAP, CHO tβ3C cells
result-type: pKd
// pKd is dimensionless: -log10 of concentration (M)

Write down the reported pKd of Cn1cc(C(F)(F)F)nc1-c1ccc(OCC(O)CNCCOc2ccc(O)c(C(N)=O)c2)cc1 (stereo not shown) [CGP20712A] , test system: turkey β3C-adrenoceptor (tβ3C) (Meleagris gallopavo).
5.61
